experiment: Empagliflozin plasma pharmacokinetics (HPLC-MS/MS) in the TQT study; format: in vivo, human; conditions: human, plasma, po, 200 mg, empagliflozin 200 mg single oral dose; plasma; n=30; read-out: tmax, median
MEASURED ATTRIBUTE: Tmax

Given OC[C@H]1O[C@@H](c2ccc(Cl)c(Cc3ccc(O[C@H]4CCOC4)cc3)c2)[C@H](O)[C@@H](O)[C@@H]1O , state its recorded Tmax.
~1.8 h

* * *

Experiment: Empagliflozin plasma pharmacokinetics (HPLC-MS/MS) in the TQT study
Type: in vivo, human
Settings: human; empagliflozin 25 mg single oral dose; plasma; n=28; read-out: AUC0−tz, gMean
Procedure: Blood samples for pharmacokinetic measurements were taken one hour before drug administration and at the same post-dose time points as ECG measurements, except for the moxifloxacin periods. Empagliflozin concentrations in plasma were determined using a validated high performance liquid chromatography, tandem mass spectrometry (HPLC-MS/MS) assay with a lower limit of quantification of 1.11 nmol/L (0.5 ng/mL). […]
MEASURED ATTRIBUTE: AUC(0-t) (µM·h)
API: value field is a number in µM·h; no unit string.

Given OC[C@H]1O[C@@H](c2ccc(Cl)c(Cc3ccc(O[C@H]4CCOC4)cc3)c2)[C@H](O)[C@@H](O)[C@@H]1O , state its recorded AUC(0-t).
4.86
